Data origin, for the record: ChEMBL document CHEMBL5058564

system: Fibroblast; experiment: Incucyte cell viability with human fibroblast; assay type: toxicity, cell-based; conditions: 24 h, 10 µM, compound concentration 10 uM, replicate number 1, timepoint 24 hours; also: unitless GR value; below 1 slowed growth and below 0 cell loss
# maps each entry to its Growth Rate
API note: the answer field is a bare number with no unit suffix.

Would you please look over these solved cases?
line_notation	val
COC(=O)Nc1nc2ccc(C(=O)c3cccs3)cc2[nH]1	-0.33
COc1c(Nc2ccc(S(C)(=O)=O)nc2C)ncnc1OC1CCN(C(=O)OC(C)C)CC1	0.88
CNC(=O)c1nn(C)c2c1C(C)(C)Cc1cnc(Nc3ccc(N4CCN(C)CC4)cc3)nc1-2	0.34
CC[C@H]1CN2CCc3cc(OC)c(OC)cc3[C@@H]2C[C@@H]1C[C@H]1NCCc2cc(OC)c(OC)cc21	-0.47
Cc1cc(Nc2ncc(Cl)c(Nc3ccccc3S(=O)(=O)C(C)C)n2)c(OC(C)C)cc1C1CCNCC1	-0.88
COc1ccc2c(c1OCc1ccccc1)C[C@@H](C(=O)O)N(C(=O)C(c1ccccc1)c1ccccc1)C2	0.83

Provide only the value of recorded Growth Rate for CC#C[C@@H](CC(=O)O)c1ccc(OCc2cccc(-c3ccc(C(F)(F)F)cc3)c2)cc1
0.66

Provide only the value of recorded Growth Rate for N#Cc1c(Oc2cccc(OS(=O)(=O)CCCC(F)(F)F)c2)cccc1C(F)(F)F
-0.18

====

test system: Fibroblast; experiment: Incucyte cell viability with human fibroblast; type: toxicity, cell-based; settings: 0 h, 10 µM, compound concentration 10 uM, replicate number 2, timepoint 0 hours; also: unitless GR value; below 1 slowed growth and below 0 cell loss
Label scheme for Growth Rate: lower than 0.7 is -1, 0.7 and above is 1.

Field: example entries. Status: answers known.
compound	class
COc1c(C)cc(NC(=O)c2nn(Cc3ccc(F)cc3)c3c2CN(C(=O)c2ccc[nH]2)C[C@]3(C)C(N)=O)cc1C	-1
Cc1ccc(OCC(O)C(C)NC(C)C)c2c1CCC2.Cl (stereo not drawn)	-1
CC(C)(O)C(=O)N1CCN(c2ccc(C(F)(F)F)c(C3=C(c4c[nH]c5ccccc45)C(=O)NC3=O)c2)CC1	-1
CCCCCCNC(=O)Nc1ccc(S(=O)(=O)Nc2ccc(CCNC[C@H](O)COc3ccc(O)cc3)cc2)cc1 [L-755507]	1
CC[C@@]1(O)C(=O)OCc2c1cc1n(c2=O)Cc2cc3ccccc3nc2-1 [CAMPTOTHECIN]	-1

Check the entry O=C(NCCO)c1cccc(-c2cc(Nc3ccc(OC(F)(F)F)cc3)ncn2)c1 : does Growth Rate equal or exceed 0.7?
-1

Check the entry O=C1c2c(Br)c(Br)c(Br)c(Br)c2C(=O)N1c1ncc[nH]1 : does Growth Rate equal or exceed 0.7?
1

Check the entry C[C@H](NC(=O)c1c(C(F)F)nn(C)c1Oc1cccc(C(F)(F)F)c1)c1ccc(C(=O)O)cc1 [PALUPIPRANT] : does Growth Rate equal or exceed 0.7?
-1

Check the entry NCCc1c[nH]c2ccc(C(N)=O)cc12.O=C(O)/C=C\C(=O)O : does Growth Rate equal or exceed 0.7?
-1

====

system: Fibroblast; test: Incucyte cell viability with human fibroblast; type: toxicity, cell-based; settings: 6 h, 10 µM, compound concentration 10 uM, replicate number 2, timepoint 6 hours; also: unitless GR value; below 1 slowed growth and below 0 cell loss
outcome_measure: Growth Rate
API note: the answer field is a bare number with no unit suffix.

compound	system_under_test	outcome_measure	val
COc1cc(C(=O)N2CC[C@@H](O)[C@@H](N)C2)cc2nc(-c3cc4ccccc4n3CC3CC3)n(C)c12.Cl	Fibroblast	Growth Rate	-0.57
CCOc1c2c(c(OCC)c3ncccc13)CN(c1ccc(CS(=O)(=O)NC(=O)Cc3ccccc3OC)cc1C)C2=O	Fibroblast	Growth Rate	-0.34
Cc1c(C(=O)NN2CCCCC2)nn(-c2ccc(Cl)cc2Cl)c1-c1ccc(Cl)cc1 [RIMONABANT]	Fibroblast	Growth Rate	-0.46
CSCC[C@H](NC(=O)[C@H](CC(C)C)NC(=O)CNC(=O)[C@H](Cc1ccccc1)N(C)C(=O)[C@H](Cc1ccccc1)NC(=O)[C@H](CC(=O)O)NC(=O)CCC(=O)O)C(N)=O [SENKTIDE]	Fibroblast	Growth Rate	0.25
CC(=O)Nc1cccc2c1c(Sc1ccc(Cl)cc1)c(C)n2CC(=O)O [AZD1981]	Fibroblast	Growth Rate	0.04

Provide only the value of recorded Growth Rate for O=C1NC(=Nc2c(Cl)cccc2Cl)S/C1=C\c1ccc2nccnc2c1
0.79

Provide only the value of recorded Growth Rate for CCCCC/C=C\C/C=C\C/C=C\C/C=C\CCCC(=O)NCC(=O)O [ARACHIDONOYL GLYCINE]
0.75

Provide only the value of recorded Growth Rate for CCNC(=O)[C@H]1O[C@@H](n2cnc3c(N)ncnc32)[C@H](O)[C@@H]1O.O
0.46

Provide only the value of recorded Growth Rate for O=C(O)COc1cccc(-c2ocnc2-c2nc(-c3ccccc3)c(-c3ccccc3)o2)c1
0.07

Provide only the value of recorded Growth Rate for N[C@@H]1c2cccnc2[C@H](OC(=O)N2CCC(n3c(=O)[nH]c4ncccc43)CC2)CC[C@H]1c1cccc(F)c1F [RIMEGEPANT]
0.05

Provide only the value of recorded Growth Rate for COc1cc(Br)c(S(=O)(=O)Nc2ccc(C(F)(F)F)c(O[C@@H]3CCN(C)C3)c2)cc1OC
-0.63

Provide only the value of recorded Growth Rate for CN1C[C@@H](NS(=O)(=O)N(C)C)C[C@@H]2c3cccc4c3c(cn4C)C[C@H]21.Cl [MESULERGINE HYDROCHLORIDE]
-0.13
